FYI, the data here is from ChEMBL document CHEMBL1129553.

Target Entity: Glutamate receptor ionotropic, AMPA (Rattus norvegicus, UniProt P19490+P19491+P19492+P19493)
Test Name: Inhibition of AMPA induced electrophysiological responses in rat cortical slices.
Assay type: functional
pIC50: −log10 of the molar value.
// values below are reported pIC50

CC(C)(C)Cc1onc(OCP(=O)(O)O)c1CC(N)C(=O)O (centres undefined) | < 3.00
NC(Cc1c(OCC(=O)O)noc1-c1cccs1)C(=O)O (centres undefined) | < 3.00
CCCC(CCC)c1onc(OCC(=O)O)c1CC(N)C(=O)O (centres undefined) | < 3.00
Cc1onc(OCP(=O)(O)O)c1CC(N)C(=O)O (centres undefined) | 4.22
NC(Cc1cc(OCP(=O)(O)O)no1)C(=O)O (centres undefined) | < 3.00
NC(Cc1c(OCP(=O)(O)O)noc1-c1cccs1)C(=O)O (centres undefined) | 3.44
NC(Cc1cc(OCC(=O)O)no1)C(=O)O (centres undefined) | < 3.00
CCCC(CCC)c1onc(OCP(=O)(O)O)c1CC(N)C(=O)O (centres undefined) | 3.46
CCCCc1onc(OCC(=O)O)c1CC(N)C(=O)O (centres undefined) | < 3.00
CC(C)(C)c1onc(OCC(=O)O)c1CC(N)C(=O)O (centres undefined) | 3.82

Exam item: Recorded pIC50 for CC(C)(C)Cc1onc(OCC(=O)O)c1CC(N)C(=O)O (centres undefined) , please?
Marked response: < 3.00

Exam item: Recorded pIC50 for NC(Cc1c(OCC(=O)O)noc1-c1ccccc1)C(=O)O (centres undefined) , please?
Marked response: < 3.00

Exam item: Recorded pIC50 for CCCCc1onc(OCP(=O)(O)O)c1CC(N)C(=O)O (centres undefined) , please?
Marked response: 3.85

Exam item: Recorded pIC50 for NC(Cc1c(OCP(=O)(O)O)noc1-c1ccccc1)C(=O)O (centres undefined) , please?
Marked response: < 3.00
